Tested on: NCI-H1993 cells
Assay: MTT cell proliferation assay
Format: cell-based
Conditions: Homo sapiens, 72-hour MTT
pIC50: −log10 of the molar value.
Endpoint label: pIC50

Enquiry: // returns reported pIC50 for input Nc1ccc(/C=C/C(=O)NCc2cc3cc(-c4ccc(C(=O)N5CCC(F)(F)CC5)cn4)cc(C(F)(F)F)c3o2)cn1 [Compound 585]
Return: < 5.00

###

Test system: U-937 cells
Assay: MTT cell proliferation assay
Format: cell-based
Details: Homo sapiens, 72-hour MTT
Endpoint label: IC50

Enquiry: // returns reported IC50 for input `Nc1ccc(/C=C/C(=O)NCc2cc3cc(-c4ccc(C(=O)N5CCC(F)(F)CC5)cn4)cc(C(F)(F)F)c3o2)cn1`
Return: 260 nM

###

Would you mind telling me the reported IC50 of each entry?
System: Z138 cells
Experiment: MTT cell proliferation assay
Format: cell-based
Details: Homo sapiens, Z-138, Z138 cells; approximately 64-72 hours incubation; read-out: MTT Assay IC50 Z-138
Description: The MTT cell proliferation assay was used to study the cytotoxic properties of the compounds. The assay was performed according to the method described by Roche Molecular Biochemicals, with minor modifications. […] After solubilization, the formazan dye was quantitated using a scanning multi-well spectrophotometer (ELISA reader). […] All optical densities were measured at 490 nm using a Vmax Kinetic Microplate Reader (Molecular Devices). […]

Worked examples, 5 molecules total:
Nc1ccc(/C=C/C(=O)NCc2cc3cc(-c4ccc(C(=O)N5CCCOCC5)cc4)cc(C(F)(F)F)c3o2)cn1	100 to 5000 nM
Nc1ccc(/C=C/C(=O)NCc2cc3cc(-c4ccc(C(=O)NNc5ccccn5)cc4)cc(C(F)(F)F)c3o2)cn1	100 to 5000 nM
Nc1ccc(/C=C/C(=O)NCc2cc3cc(-c4ccc(C(=O)N5CCC(F)(F)C5)cn4)cc(C(F)(F)F)c3o2)cn1	< 100 nM
CC1(F)CCN(C(=O)c2ccc(-c3cc(C(F)(F)F)c4oc(CNC(=O)/C=C/c5ccc(N)nc5)cc4c3)nc2)C1 (centres unmarked) [Compound 617]	< 100 nM
Nc1ccc(/C=C/C(=O)NCc2cc3cc(-c4ccc(C(=O)N5CCC(Cl)CC5)cc4)cc(C(F)(F)F)c3o2)cn1	100 to 5000 nM

Lab note: each molecule below needs its IC50 filled in.
1. CC(=O)c1ccc(-c2ccc3oc(CNC(=O)/C=C/c4ccc(N)nc4)cc3c2)s1
2. Nc1ccc(/C=C/C(=O)NCCc2cc3cc(-c4ccc(C(=O)N5CCOCC5)cc4)cc(Cl)c3o2)cn1
3. CC1(F)CCN(C(=O)c2ccc(-c3cc(C(F)(F)F)c4oc(CNC(=O)/C=C/c5ccc(N)nc5)cc4c3)cc2)C1 (centres unmarked)
4. Nc1ccc(/C=C/C(=O)NCc2cc3cc(-c4cnc(C(=O)N5CCOCC5)c(F)c4)cc(Cl)c3o2)cn1

Return:
1. > 10000 nM
2. < 100 nM
3. 100 to 5000 nM
4. 100 to 5000 nM

Lab note: each molecule below needs its IC50 filled in.
1. CN(C)c1ccc(-c2cc(Cl)c3oc(CNC(=O)/C=C/c4ccc(N)nc4)cc3c2)nc1
2. Nc1ccc(/C=C/C(=O)NCc2cc3cc(-c4ccc(C(=O)N5CC(F)(F)C5)cc4)cc(Cl)c3o2)cn1
3. COc1cc(-c2ccc(S(=O)(=O)N3CCOCC3)cc2)cc2cc(CNC(=O)/C=C/c3ccc(N)nc3)oc12
4. Nc1ccc(/C=C/C(=O)NCc2cc3cc(-c4ccc(C(=O)N5CC[C@H](Cl)C5)cn4)cc(C(F)(F)F)c3o2)cn1
5. CC1(C)C2CN(C(=O)c3ccc(-c4cc(C(F)(F)F)c5oc(CNC(=O)/C=C/c6ccc(N)nc6)cc5c4)nc3)CC21 (centres unmarked)

Return:
1: > 10000 nM; 2: 100 to 5000 nM; 3: < 100 nM; 4: 100 to 5000 nM; 5: 100 to 5000 nM

###

Test system: Z138 cells
Test: MTT cell proliferation assay
Format: cell-based
Conditions: Homo sapiens, Z-138, Z138 cells; approximately 64-72 hours incubation; read-out: MTT Assay IC50 Z-138
Description: The MTT cell proliferation assay was used to study the cytotoxic properties of the compounds. The assay was performed according to the method described by Roche Molecular Biochemicals, with minor modifications. […] After solubilization, the formazan dye was quantitated using a scanning multi-well spectrophotometer (ELISA reader). […] All optical densities were measured at 490 nm using a Vmax Kinetic Microplate Reader (Molecular Devices). […]
pIC50: −log10 of the molar value.
Endpoint label: pIC50

Worked examples, 2 compounds total:
CC1(O)CCN(C(=O)c2ccc(-c3cc(Cl)c4oc(CNC(=O)/C=C/c5ccc(N)nc5)cc4c3)cc2)CC1 [Compound 602]	5.30 to 7.00
Cc1noc(C)c1C(O)c1ccc(-c2cc(Cl)c3oc(CNC(=O)/C=C/c4ccc(N)nc4)cc3c2)s1 (stereo not shown) [Compound 578]	5.00 to 5.30

Lab note: each compound below needs its pIC50 filled in.
1. Nc1ccc(/C=C/C(=O)NCc2cc3cc(-c4ccc(C(=O)N5CC(F)(F)C5)cn4)cc(C(F)(F)F)c3o2)cn1 [Compound 645]
2. CC1(O)CCN(C(=O)c2ccc(-c3cc(C(F)(F)F)c4oc(CNC(=O)/C=C/c5ccc(N)nc5)cc4c3)nc2)C1 (stereo not shown) [Compound 627]
3. Nc1ccc(/C=C/C(=O)NCc2cc3cc(-c4ccc(C(=O)NCc5cccnc5)cn4)cc(C(F)(F)F)c3o2)cn1 [Compound 630]
4. Nc1ccc(/C=C/C(=O)NCc2cc3cc(-c4ccc(S(=O)(=O)N5CC(F)(F)C5)cc4)cc(C(F)(F)F)c3o2)cn1 [Compound 644]
5. Nc1ccc(/C=C/C(=O)NCc2cc3cc(-c4ccc(C(=O)N5CCC(O)(C(F)(F)F)C5)cc4)cc(C(F)(F)F)c3o2)cn1 (stereo not shown) [Compound 606]

Return:
1. > 7.00
2. > 7.00
3. > 7.00
4. 5.30 to 7.00
5. 5.30 to 7.00

###

Test system: Z138 cells
Experiment: MTT cell proliferation assay
Assay type: cell-based
Conditions: Homo sapiens, Z-138, Z138 cells; approximately 64-72 hours incubation; read-out: MTT Assay IC50 Z-138
Would you mind telling me the reported IC50 of each entry?

Worked examples, 3 compounds total:
Nc1ccc(/C=C/C(=O)NCc2cc3cc(-c4ccc(F)c(C(=O)N5CCOCC5)n4)cc(C(F)(F)F)c3o2)cn1	< 100 nM
Nc1ccc(/C=C/C(=O)NCc2cc3cc(-c4ccc(C(=O)N5CC(F)C5)cc4)cc(C(F)(F)F)c3o2)cn1	100 to 5000 nM
CN1CCN(C(=O)c2ccc(-c3cc(C(F)(F)F)c4oc(CNC(=O)/C=C/c5ccc(N)nc5)cc4c3)cc2)CC1	< 100 nM

Enquiry: // returns reported IC50 for input `Nc1ccc(/C=C/C(=O)NCc2cc3cc(-c4ccc(C(=O)N5CCC(F)(F)CC5)cc4)cc(Cl)c3o2)cn1`
Return: 100 to 5000 nM

###

Would you mind telling me the reported IC50 of each entry?
Test system: Z138 cells
Experiment: MTT cell proliferation assay
Assay type: cell-based
Settings: Homo sapiens, Z-138, Z138 cells; approximately 64-72 hours incubation; read-out: MTT Assay IC50 Z-138

CC1(C)CN(C(=O)c2ccc(-c3cc(C(F)(F)F)c4oc(CNC(=O)/C=C/c5ccc(N)nc5)cc4c3)cc2)CCO1	0.1 to 5 µM
CN1CCN(C(=O)c2cnc(-c3cc(Cl)c4oc(CNC(=O)/C=C/c5ccc(N)nc5)cc4c3)nc2)CC1	0.1 to 5 µM
CC1(F)CCN(C(=O)c2ccc(-c3cc(C(F)(F)F)c4oc(CNC(=O)/C=C/c5ccc(N)nc5)cc4c3)nc2)C1 (single isomer, unassigned) [Compound 654]	< 0.1 µM
Nc1ccc(/C=C/C(=O)NCc2cc3cc(-c4ncc(C(=O)N5CCC(F)(F)C5)cn4)cc(C(F)(F)F)c3o2)cn1	0.1 to 5 µM
Nc1ccc(/C=C/C(=O)NCc2cc3cc(-c4ncc(C(=O)N5CCC(F)(F)CC5)cn4)cc(C(F)(F)F)c3o2)cn1	0.1 to 5 µM

Lab note: each compound below needs its IC50 filled in.
1. Nc1ccc(/C=C/C(=O)NCc2cc3cc(-c4ccc(C(=O)N5CCC(F)(F)C5)cc4)cc(C(F)(F)F)c3o2)cn1
2. Nc1ccc(/C=C/C(=O)NCc2cc3cc(-c4ccc(C(=O)N5CC6CC6C5)cn4)cc(C(F)(F)F)c3o2)cn1 (stereo not shown)
3. CC1(C)CN(C(=O)c2ccc(-c3cc(C(F)(F)F)c4oc(CNC(=O)/C=C/c5ccc(N)nc5)cc4c3)cc2)C1
4. Nc1ccc(/C=C/C(=O)NCc2cc3cc(-c4ccc(S(=O)(=O)N5CC[C@H](F)C5)cc4)cc(Cl)c3o2)cn1
5. Nc1ccc(/C=C/C(=O)NCc2cc3cc(-c4ccc(S(=O)(=O)N5CC(F)(F)C5)cc4)cc(Cl)c3o2)cn1
6. Nc1ccc(/C=C/C(=O)NCc2cc3cc(-c4ccc(C(=O)N5CCOCC5)cn4)cc(C(F)(F)F)c3o2)cn1
7. Nc1ccc(/C=C/C(=O)NCc2cc3cc(-c4ccc(C(=O)N5CC[C@@H](F)C5)cc4)cc(Cl)c3o2)cn1

Return:
1. 0.1 to 5 µM
2. 0.1 to 5 µM
3. 0.1 to 5 µM
4. 0.1 to 5 µM
5. 0.1 to 5 µM
6. < 0.1 µM
7. > 10 µM

Enquiry: // returns reported IC50 for input `O=C(/C=C/c1ccc(C(F)(F)F)nc1)NCc1cc2cc(-c3ccc(C(=O)N4CCOCC4)cc3)cc(Cl)c2o1`
Return: 5 to 10 µM
